species: Oryctolagus cuniculus; assay: Tested for contraction of rabbit saphenous artery produced by 1 uM alpha,beta-MeATP at 37 degree C; format: functional
readout label: Relative activity (%)

molecule="N#CCCCCCCSc1nc(N)c2ncn(C3O[C@H](COP(=O)(O)OP(=O)(O)OP(=O)(O)O)[C@@H](O)[C@H]3O)c2n1 (stereo not given in full)" recorded_measurement=9.2
molecule="Nc1nc(SCCc2ccc([N+](=O)[O-])cc2)nc2c1ncn2C1O[C@H](COP(=O)(O)OP(=O)(O)OP(=O)(O)O)[C@@H](O)[C@H]1O (stereo not given in full)" recorded_measurement=2.6
molecule="C=CCCCCSc1nc(NC)c2ncn(C3O[C@H](COP(=O)(O)OP(=O)(O)OP(=O)(O)O)[C@@H](O)[C@H]3O)c2n1 (stereo not given in full)" recorded_measurement=1.5
molecule="N#CCCCCCCSc1nc(N)c2ncn(C3O[C@H](COP(=O)(O)O)[C@@H](O)[C@H]3O)c2n1 (stereo not given in full)" recorded_measurement=4.5
molecule="C=CCCCCSc1nc(NC)c2ncn(C3O[C@H](COP(=O)(O)O)[C@@H](O)[C@H]3O)c2n1 (stereo not given in full)" recorded_measurement=6.7

###

We begin with a simple list: items and their reported Relative activity.
species on record: Oryctolagus cuniculus; test: Tested for relaxation of carbachol-contracted rabbit aorta at 37 degree C; Significantly more potent than 2MeSATP; format: functional
readout label: Relative activity

compound="C=CCCCCSc1nc(N)c2ncn(C3O[C@H](COP(=O)(O)O)[C@@H](O)[C@H]3O)c2n1 (some centres undefined)" readout_label="Relative activity" recorded_measurement=7
compound="Nc1nc(SCCc2ccccc2)nc2c1ncn2C1O[C@H](COP(=O)(O)OP(=O)(O)OP(=O)(O)O)[C@@H](O)[C@H]1O (some centres undefined)" readout_label="Relative activity" recorded_measurement=6.5
compound="CCCCCCSc1nc(N)c2ncn(C3O[C@H](COP(=O)(O)OP(=O)(O)OP(=O)(O)O)[C@@H](O)[C@H]3O)c2n1 (some centres undefined)" readout_label="Relative activity" recorded_measurement=6.7
compound="N#CCCCCCCSc1nc(N)c2ncn(C3O[C@H](COP(=O)(O)OP(=O)(O)OP(=O)(O)O)[C@@H](O)[C@H]3O)c2n1 (some centres undefined)" readout_label="Relative activity" recorded_measurement=7

###

species: Oryctolagus cuniculus; assay: Tested for relaxation of carbachol-contracted rabbit aorta at 37 degree C; Significantly more potent than 2MeSATP; type: functional
readout label: Relative activity

compound=CSc1nc(N)c2ncn([C@@H]3O[C@H](COP(=O)(O)OP(=O)(O)OP(=O)(O)O)[C@@H](O)[C@H]3O)c2n1 readout_label="Relative activity" recorded_measurement=6.8
compound="Nc1nc(SCCc2ccc([N+](=O)[O-])cc2)nc2c1ncn2C1O[C@H](COP(=O)(O)OP(=O)(O)OP(=O)(O)O)[C@@H](O)[C@H]1O (stereo partly drawn)" readout_label="Relative activity" recorded_measurement=6.2

###

organism: Oryctolagus cuniculus; experiment: Tested for relaxation of carbachol-contracted rabbit mesenteric artery at 37 degree C; More potent than or equal to 2MeSATP; assay type: functional
readout label: Relative activity

compound="C=CCCCCSc1nc(N)c2ncn(C3O[C@H](COP(=O)(O)O)[C@@H](O)[C@H]3O)c2n1 (some centres undefined)" readout_label="Relative activity" recorded_measurement=6.3
compound="N#CCCCCCCSc1nc(N)c2ncn(C3O[C@H](COP(=O)(O)O)[C@@H](O)[C@H]3O)c2n1 (some centres undefined)" readout_label="Relative activity" recorded_measurement=6.2
compound="Nc1nc(SC2CCCCC2)nc2c1ncn2C1O[C@H](COP(=O)(O)OP(=O)(O)OP(=O)(O)O)[C@@H](O)[C@H]1O (some centres undefined)" readout_label="Relative activity" recorded_measurement=5.9
compound=Nc1ncnc2c1ncn2[C@@H]1O[C@H](CO)[C@@H](O)[C@H]1O readout_label="Relative activity" recorded_measurement=5.7
